B1: Hairpin Ribozyme (parent)
chain: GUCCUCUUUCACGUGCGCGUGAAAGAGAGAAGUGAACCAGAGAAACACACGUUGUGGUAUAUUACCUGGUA

# Variants of: B1
# protocolNotes: self-cleavage, relative activity (ratio to wild type); higher = more cleavage; co-transcriptional
Catalogue of variants with associated self-cleavage
readoutKind: self-cleavage

>>> print(df.to_string())
    mutationstring  measured
 0       C46U U52A     0.179
 1        G1A A22U     0.109
 2       A11U G51A     0.799
 3       U20G C50U      0.42
 4       G40A C66U     0.832
 5        U7A G15U     0.844
 6       A35C G40A     0.208
 7       A36G C66U     0.482
 8       A26G A59C     0.162
 9        U9A A31U    0.0478
10        U7C U20C      1.14
11       G54A C65G     0.107
12       C12U A28U     0.583
13        C3U A43U     0.207
14       G19U G34U       1.3
15       C46U A64G     0.021
16       C18G A45G    0.0821
17        U7A U52G     0.733
18       U62A A71C     0.325
19       A49G G69U     0.148
20       G27C A30C    0.0463
21       G17A U60G     0.581
22       A11G A22U      1.01
23       A28C A64G     0.285
24       G29U A41U     0.116
25        C4U U58C     0.495
26        U5C U63A     0.104
27       C16A G17A      1.02
28        G1C A71U     0.153
29       A23U U53A     0.969
30       A35C A41G     0.907
31        U2A U62A     0.194
32        U8C G21A     0.264
33         G1A U9G     0.293
34       G27A C50G     0.131
35       G15A U53G     0.687
36       A30C G42C     0.094
37       G13U G69U     0.246
38        G1C U33A    0.0439
39        U2G A28G     0.138
40       U52C U70C      1.11
41       U62C U63G     0.228
42       G25U G40A     0.256
43       A11U G56U     0.131
44       A23G A26C     0.524
45        C4G A41C     0.236
46        C4G A35C      0.16
47       G34A G40C     0.174
48       A26G G34C      1.01
49        U2G A26U     0.238
50       G27C G40C     0.107
51       A11G U20C     0.857
52        U9A G19C     0.588
53       C12U U14C      1.05
54       U60G U67A     0.144
55       U14C C16A     0.922
56       A43C C46A       0.1
57       C37G U52A     0.358
58        U5G A49G     0.109
59       C12A G19C     0.944
60       A24G G29A      0.11
61       A39U C50A     0.139
62       G57C U70C     0.216
